The measurements presented in this section are drawn from ChEMBL document CHEMBL1156829.

# TEST NAME: NOVARTIS: Cytotoxicity against human hepatocellular carcinoma cell line (Huh7)
# Assay type: toxicity, cell-based, Huh-7
# SETTINGS: Huh7 cells (hepatocellular carcinoma cell line)
OBSERVABLE: CC50

INSERT INTO assay_data (compound, result_value) VALUES
  ('Cc1ccc(F)cc1NC(=O)Cn1c2ccccc2c(=O)c2cc(Cl)ccc21', '> 100 µM'),
  ('CC(=O)N(C1=C(N(C)C)C(=O)c2ccccc2C1=O)c1cc(C)cc(C)c1', '2.23 µM'),
  ('C=CC1(C)CC23CC(C(OC(=O)c4ccccc4)c4ccnc5ccccc45)N2CCC13 (stereo not given)', '29.2 µM'),
  ('COc1ccccc1Cn1c(SCc2ccc(Cl)cc2)nc2ccc(Br)cc2c1=O', '> 10 µM'),
  ('CC(C)CN1C(=O)c2ccccc2C(C(=O)Nc2ccc(F)c(Cl)c2)C1c1cccs1 (stereo not given)', '> 95.2 µM'),
  ('CC(C)(c1ccc(Oc2ccc(NC(=O)c3ccccc3)cc2)cc1)c1cccc(Oc2ccc(NC(=O)c3ccccc3)cc2)c1', '> 10 µM'),
  ('NC(=S)NN=Cc1cc([N+](=O)[O-])ccc1O', '> 100 µM'),
  ('COc1ccc(Nc2nc(NN=Cc3cccc(F)c3)nc(Nc3ccc([N+](=O)[O-])cc3)n2)cc1', '> 100 µM'),
  ('O=C(Cn1ccc(=NCc2ccccc2)cc1)c1cccc([N+](=O)[O-])c1', '> 10 µM'),
  ('Cc1ccc(C(=O)NCCCCNc2ccnc3cc(Cl)ccc23)cc1[N+](=O)[O-]', '> 10 µM'),
  ('N#CC(C#N)C(C(Sc1ccc([N+](=O)[O-])cc1)=C(O)c1ccccc1)c1cccs1 (stereo not given)', '17.7 µM'),
  ('CCOC(=O)C1=C(C)NC2=C(C(=O)CC(c3ccc(OC)c(OC)c3)C2)C1c1cccc(Cl)c1Cl (stereo not given)', '> 100 µM'),
  ('COc1cccc(CNc2ncnc3sc(C(=O)NCC4COCCO4)c(C)c23)c1OC (stereo not given)', '> 100 µM'),
  ('c1ccc(COCC[N+]2(Cc3ccccc3)CCCCC2)cc1', '> 10 µM'),
  ('Cc1ccc(-c2c3c(nc4sc(C(=O)Nc5cccc(C)c5)c(N)c24)CCC3)cc1', '> 100 µM'),
  ('COc1ccccc1N1C(=N)SC(=Cc2ccc(N(C)C)cc2)C1=O', '2.21 µM'),
  ('COc1ccc(C(=O)N2c3cc(C)ccc3C(Nc3ccc(C)cc3)CC2C)cc1 (stereo not given)', '> 100 µM'),
  ('O=C(Nc1ccc(C2=NCCCN2)cc1)c1ccc(C(=O)Nc2ccc(C3=NCCCN3)cc2)cc1', '> 100 µM'),
  ('N#Cc1ccccc1Cn1ccc(=NCc2ccccc2)cc1', '> 10 µM'),
  ('Cn1cc(S(=O)(=O)c2cccc(Cl)c2)c(=O)c2cc(F)c(N3CCCCC3)cc21', '> 10 µM');
